# Measured target: T1, HLA-A*03:01 (human)
# T1 construct: MHC class I monomer first loaded with a UV-sensitive peptide that is cleaved by UV irradiation and exchanged for the test peptide; captured on streptavidin plates; also called peptide-receptive MHC molecules
# Measurement notes: UV-ligand exchange, anti-b2m ELISA; peptide exchange yield grade (>10% +, >20% ++, >50% +++, >75% ++++)
# Source text: Candidate peptides for T cell based therapies according to the present invention were further tested for their MHC binding capacity (affinity). The individual peptide-MHC complexes were produced by UV-ligand exchange, where a UV-sensitive peptide is cleaved upon UV-irradiation and exchanged with the peptide of interest as analyzed. Only peptide candidates that can effectively bind and stabilize the peptide-receptive MHC molecules prevent dissociation of the MHC complexes. […]
Listed here are binders together with their documented peptide exchange yield.

INSERT INTO results (binder, result) VALUES
  ('LLDAEPPILY', '10 to 20%'),
  ('SLLKPSGDYFK', '50 to 75%'),
  ('EGLFLLGCVK', '50 to 75%');

Which peptide exchange yield reading was recorded for the binder KLFMPRPK ? 50 to 75%

Which peptide exchange yield reading was recorded for the binder RSYVPLAH ? > 75%

Which peptide exchange yield reading was recorded for the binder STLECILYK ? > 75%

Which peptide exchange yield reading was recorded for the binder VAFIPLSNK ? > 75%

Which peptide exchange yield reading was recorded for the binder LLYGNGPGYVLK ? > 75%

Which peptide exchange yield reading was recorded for the binder ATNGKVLKKR ? > 75%

Which peptide exchange yield reading was recorded for the binder TRMQKAGFLYY ? 20 to 50%

Which peptide exchange yield reading was recorded for the binder KGWNGQIFK ? 50 to 75%

Which peptide exchange yield reading was recorded for the binder VSLGIAVSK ? 20 to 50%
